# target desc: FLT3 (Homo sapiens)
# Construct: using full-length kinases in the presence of cellular concentrations of ATP in live, uncompromised cells; assay by Reaction Biology; host or cells: HEK-293 (ATCC), transient transfection
# Sequence (P36888 27-993): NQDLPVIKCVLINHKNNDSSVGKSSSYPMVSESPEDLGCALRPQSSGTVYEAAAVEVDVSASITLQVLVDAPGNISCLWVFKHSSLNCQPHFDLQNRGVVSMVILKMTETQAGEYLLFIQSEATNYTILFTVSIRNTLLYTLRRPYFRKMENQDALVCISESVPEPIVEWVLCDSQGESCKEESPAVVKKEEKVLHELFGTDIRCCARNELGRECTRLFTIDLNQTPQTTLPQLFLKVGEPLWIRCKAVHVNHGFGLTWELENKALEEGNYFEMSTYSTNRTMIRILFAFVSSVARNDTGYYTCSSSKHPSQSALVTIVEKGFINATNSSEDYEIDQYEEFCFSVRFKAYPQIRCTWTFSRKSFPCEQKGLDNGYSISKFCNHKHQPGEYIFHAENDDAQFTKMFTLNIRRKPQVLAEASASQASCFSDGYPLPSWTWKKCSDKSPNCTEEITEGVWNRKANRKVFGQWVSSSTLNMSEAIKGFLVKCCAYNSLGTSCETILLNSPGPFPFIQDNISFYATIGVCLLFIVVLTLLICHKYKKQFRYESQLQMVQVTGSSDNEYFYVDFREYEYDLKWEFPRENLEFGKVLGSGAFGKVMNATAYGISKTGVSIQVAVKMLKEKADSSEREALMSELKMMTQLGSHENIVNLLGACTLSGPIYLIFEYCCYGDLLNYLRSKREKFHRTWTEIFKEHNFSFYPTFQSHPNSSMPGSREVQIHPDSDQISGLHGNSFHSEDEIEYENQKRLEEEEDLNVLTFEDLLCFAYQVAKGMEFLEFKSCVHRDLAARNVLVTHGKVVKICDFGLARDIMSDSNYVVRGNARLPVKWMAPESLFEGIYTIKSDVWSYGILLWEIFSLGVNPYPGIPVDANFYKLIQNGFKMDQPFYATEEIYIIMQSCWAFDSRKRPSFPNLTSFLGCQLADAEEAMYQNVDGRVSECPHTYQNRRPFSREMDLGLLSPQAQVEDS
# measurement description: Reaction Biology NanoBRET target engagement assay, FLT3
# Type: cell-based
# setup conditions: transfected HEK-293 cells
Criterion: IC50 strictly under 0.2 µM. Met: true. Not met: false.

- compound: "COc1cc2ncc(-c3nc(N[C@H]4CNC[C@@H]4F)c(F)cc3F)n2nc1C(C)(C)O [Compound 126]"
  answer label: "false"
- compound: "F[C@H]1CNC[C@@H]1Nc1cccc(-c2cnc3ccc(-c4cnn5ccccc45)nn23)n1 [Compound 9]"
  answer label: "false"
- compound: "COc1cc2ncc(-c3nc(N[C@H]4CNC[C@@H]4F)c(F)cc3F)n2nc1C1CC1 [Compound 107]"
  answer label: "false"
- compound: "COc1cc2ncc(-c3cccc(N[C@H]4CNC[C@@H]4F)n3)n2nc1C(C)(O)C(F)(F)F (single isomer, unassigned; fast-eluting) [Compound 133]"
  answer label: "false"
- compound: "COc1cc2ncc(-c3nc(N[C@H]4CNCC[C@@H]4F)c(F)cc3F)n2nc1C1CC1 [Compound 108]"
  answer label: "true"

As a next step, examine the compound that follows.
Problem: Please state whether IC50 is below 0.2 µM for COc1cc2ncc(-c3cccc(N[C@H]4CNC[C@@H]4F)n3)n2nc1C1CC1 [Compound 96]
Result: true
